Taken from patent US20230278996A1.

IC50 for assorted compounds
Molecular target: YKL-40 (Homo sapiens (Human), UniProt P36222)
Sequence (P36222 22-383): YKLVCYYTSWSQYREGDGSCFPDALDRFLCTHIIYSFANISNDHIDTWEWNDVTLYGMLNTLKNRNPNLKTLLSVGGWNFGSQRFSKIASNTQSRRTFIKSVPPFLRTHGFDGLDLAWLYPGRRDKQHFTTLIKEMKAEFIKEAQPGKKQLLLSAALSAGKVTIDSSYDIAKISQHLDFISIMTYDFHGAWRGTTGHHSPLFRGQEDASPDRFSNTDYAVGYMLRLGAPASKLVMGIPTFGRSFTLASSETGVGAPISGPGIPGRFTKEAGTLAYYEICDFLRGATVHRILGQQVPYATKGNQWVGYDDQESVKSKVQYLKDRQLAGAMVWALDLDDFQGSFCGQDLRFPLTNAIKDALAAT
Assay: YKL-40:4 assay, competitive chitin binding site AlphaScreen
Settings: competition with biotinylated compound 4 (20 nM), YKL-40-histag 2.5 nM

{"COMPOUND": "C[C@H]1CN(C2CCN(c3ncccc3O)CC2)[C@@H](Cc2ccc(Cl)cc2)CO1 [compound 160, 2,2,2-trifluoroacetate]", "IC50": "> 100 µM"}
{"COMPOUND": "Cc1nc(N2CCC(N3C[C@H](C)OC[C@@H]3Cc3ccc(Cl)cc3)CC2)sc1C [compound 183, 2,2,2-trifluoroacetate]", "IC50": "< 0.1 µM"}
{"COMPOUND": "CN(C)CCN(C)C[C@H]1CN(C2CCN(c3ncccn3)CC2)[C@@H](Cc2ccc(Cl)cc2)CO1 [compound 72, 2,2,2-trifluoroacetate]", "IC50": "1 to 10 µM"}
{"COMPOUND": "CN1CCN(C[C@H]2CN(C3CCN(c4cc(Cl)ccn4)CC3)[C@@H](Cc3ccc(Cl)cc3)CN2C)CC1 [compound 83, 2,2,2-trifluoroacetate]", "IC50": "< 0.1 µM"}
{"COMPOUND": "CO[C@H]1CN(c2cc(Cl)ccn2)CC[C@@H]1N1C[C@H](C)OC[C@@H]1Cc1ccc(Cl)cc1 [compound 60, 2,2,2-trifluoroacetate]", "IC50": "10 to 100 µM"}
{"COMPOUND": "C[C@H]1CN(C2CCN(c3ncccc3CO)CC2)[C@@H](Cc2ccc(Cl)cc2)CO1 [compound 120, 2,2,2-trifluoroacetate]", "IC50": "> 100 µM"}

---

Listing of recorded IC50 by entry.
Molecular target: YKL-40: heparan sulfate interaction (Homo sapiens (Human))
Assay: YKL-40:HS assay, heparan sulfate interference AlphaScreen
Type: binding
Conditions: competition with biotinylated heparan sulphate (60 nM)
Counter-ions that a name gives are not always drawn.

{"COMPOUND": "Cc1cnc(N2CCC(N3C[C@H](C)OC[C@@H]3Cc3ccc(Cl)cc3)CC2)s1 [compound 185, 2,2,2-trifluoroacetate]", "IC50": "100 to 1000 nM"}
{"COMPOUND": "CN1C[C@H](Cc2ccc(Cl)cc2)N(C2CCN(c3ccccn3)CC2)C[C@@H]1Cc1ccc(Cl)cc1 [compound 63, 2,2,2-trifluoroacetate]", "IC50": "100 to 1000 nM"}
{"COMPOUND": "Cc1nc(N2CCC(N3C[C@H](C)OC[C@@H]3Cc3ccc(Cl)cc3)CC2)sc1C [compound 183, 2,2,2-trifluoroacetate]", "IC50": "< 100 nM"}
{"COMPOUND": "CN1C[C@H](Cc2ccc(Cl)cc2)N(C2CCN(c3cc(Cl)ccn3)CC2)C[C@@H]1Cn1ccnc1 [compound 82, hydrochloride]", "IC50": "< 100 nM"}
{"COMPOUND": "CNC(=O)CN1C[C@H](Cc2ccc(Cl)cc2)N(C2CCN(c3ccccn3)CC2)C[C@@H]1C(C)C [compound 106, 2,2,2-trifluoroacetate]", "IC50": "< 100 nM"}
{"COMPOUND": "CNC(=O)CN1C[C@H](Cc2ccc(Cl)cc2)N(C2CCN(c3ccccn3)CC2)C[C@@H]1CC(C)C [compound 95, 2,2,2-trifluoroacetate]", "IC50": "< 100 nM"}
{"COMPOUND": "Cc1ccnc(N2CCC(N3C[C@H](C)OC[C@@H]3Cc3ccc(Cl)cc3)CC2)c1F [compound 112, 2,2,2-trifluoroacetate]", "IC50": "< 100 nM"}
{"COMPOUND": "CN1C[C@H](Cc2ccc(Cl)cc2)N(C2CCN(c3cc(Cl)ccn3)CC2)C[C@@H]1CN1CCOCC1 [compound 51, hydrochloride]", "IC50": "< 100 nM"}

---

Molecular target: YKL-40 (Homo sapiens (Human))
Test: YKL-40:4 assay, competitive chitin binding site AlphaScreen
Details: competition with biotinylated compound 4 (20 nM), YKL-40-histag 2.5 nM
Where a name gives a salt, the structure may show the parent alone.

{"MOLECULE": "C[C@H]1CN(C2CCN(c3cc(C(F)(F)F)ncn3)CC2)[C@@H](Cc2ccc(Cl)cc2)CO1 [compound 145, hydrochloride]", "SYSTEM_TESTED": "YKL-40 (Homo sapiens (Human))", "IC50": "> 100 µM"}
{"MOLECULE": "CC[C@H]1CN(C2CCN(c3ccccn3)CC2)[C@@H](Cc2ccc(Cl)cc2)CN1CC(C)C [compound 94, 2,2,2-trifluoroacetate]", "SYSTEM_TESTED": "YKL-40 (Homo sapiens (Human))", "IC50": "1 to 10 µM"}
{"MOLECULE": "COC(=O)c1ccnc(N2CCC(N3C[C@H](C)OC[C@@H]3Cc3ccc(Cl)cc3)CC2)c1 [compound 124]", "SYSTEM_TESTED": "YKL-40 (Homo sapiens (Human))", "IC50": "> 100 µM"}
{"MOLECULE": "CNC(=O)CN1C[C@H](Cc2ccc(Cl)cc2)N(C2CCN(c3ccccn3)CC2)C[C@@H]1CC(C)C [compound 95, 2,2,2-trifluoroacetate]", "SYSTEM_TESTED": "YKL-40 (Homo sapiens (Human))", "IC50": "< 0.1 µM"}
{"MOLECULE": "CN1C[C@H](Cc2ccc(Cl)cc2)N(C2CCN(c3cc(Cl)ccn3)CC2)C[C@@H]1CN1CCOCC1 [compound 51, hydrochloride]", "SYSTEM_TESTED": "YKL-40 (Homo sapiens (Human))", "IC50": "< 0.1 µM"}
{"MOLECULE": "C[C@H]1CN(C2CCN(c3cnc(C(F)(F)F)cn3)CC2)[C@@H](Cc2ccc(Cl)cc2)CO1 [compound 158, hydrochloride]", "SYSTEM_TESTED": "YKL-40 (Homo sapiens (Human))", "IC50": "> 100 µM"}

---

Below, each of the compounds is paired with its reported IC50 value.
Molecular target: YKL-40 (Homo sapiens (Human), UniProt P36222)
Experiment: YKL-40:4 assay, competitive chitin binding site AlphaScreen
Settings: competition with biotinylated compound 4 (20 nM), YKL-40-histag 2.5 nM
Counter-ions that a name gives are not always drawn.
MEASURED_QUANTITY: IC50

{"COMPOUND": "COC1(C)CCN(C2CCN(c3ccccn3)CC2)[C@@H](Cc2ccc(Cl)cc2)C1 (some centres unmarked) [compound 91, 2,2,2-trifluoroacetate]", "SYSTEM_TESTED": "YKL-40 (Homo sapiens (Human), UniProt P36222)", "RESULT": "< 0.1 µM"}
{"COMPOUND": "CC1CC(N2C[C@H](C)OC[C@@H]2Cc2ccc(Cl)cc2)CCN1c1cc(Cl)ccn1 (some centres unmarked) [Example 33, 2,2,2-trifluoroacetate]", "SYSTEM_TESTED": "YKL-40 (Homo sapiens (Human), UniProt P36222)", "RESULT": "1 to 10 µM"}
{"COMPOUND": "Cc1noc(N2CCC(N3C[C@H](C)OC[C@@H]3Cc3ccc(Cl)cc3)CC2)n1 [compound 188, 2,2,2-trifluoroacetate]", "SYSTEM_TESTED": "YKL-40 (Homo sapiens (Human), UniProt P36222)", "RESULT": "> 100 µM"}
{"COMPOUND": "C[C@H]1CN(C2CCN(c3ccnc(Br)c3)CC2)[C@@H](Cc2ccc(Cl)cc2)CO1 [compound 156, hydrochloride]", "SYSTEM_TESTED": "YKL-40 (Homo sapiens (Human), UniProt P36222)", "RESULT": "10 to 100 µM"}
{"COMPOUND": "C[C@H]1CN(C2CCN(c3ccccn3)C(=O)C2)[C@@H](Cc2ccc(Cl)cc2)CO1 (some centres unmarked) [compound 85, 2,2,2-trifluoroacetate]", "SYSTEM_TESTED": "YKL-40 (Homo sapiens (Human), UniProt P36222)", "RESULT": "10 to 100 µM"}
{"COMPOUND": "C[C@H]1CN(C2CCN(c3ccncc3)CC2)[C@@H](Cc2ccc(Cl)cc2)CO1 [Example 28, 2,2,2-trifluoroacetate]", "SYSTEM_TESTED": "YKL-40 (Homo sapiens (Human), UniProt P36222)", "RESULT": "> 100 µM"}
{"COMPOUND": "C[C@H]1CN(C2C[C@H]3CC[C@@H](C2)N3c2cc(Cl)ccn2)[C@@H](Cc2ccc(Cl)cc2)CO1 (some centres unmarked) [compound 58, 2,2,2-trifluoroacetate]", "SYSTEM_TESTED": "YKL-40 (Homo sapiens (Human), UniProt P36222)", "RESULT": "> 100 µM"}
{"COMPOUND": "Cc1ccnc(N2CCC(N3C[C@@H]4C[C@H](O)CN4C[C@@H]3Cc3ccc(Cl)cc3)CC2)n1 [Example 43]", "SYSTEM_TESTED": "YKL-40 (Homo sapiens (Human), UniProt P36222)", "RESULT": "0.1 to 1 µM"}
{"COMPOUND": "Cc1ccnc(N2CCC(N3C[C@H](C)OC[C@@H]3Cc3ccc(Cl)cc3)CC2)c1F [compound 112, 2,2,2-trifluoroacetate]", "SYSTEM_TESTED": "YKL-40 (Homo sapiens (Human), UniProt P36222)", "RESULT": "0.1 to 1 µM"}
{"COMPOUND": "Cc1nsc(N2CCC(N3C[C@H](C)OC[C@@H]3Cc3ccc(Cl)cc3)CC2)n1 [compound 180, 2,2,2-trifluoroacetate]", "SYSTEM_TESTED": "YKL-40 (Homo sapiens (Human), UniProt P36222)", "RESULT": "> 100 µM"}
{"COMPOUND": "O[C@@H]1C[C@H]2CN(C3CCN(c4ncccn4)CC3)[C@@H](Cc3ccc(Cl)cc3)CN2C1 [Example 40]", "SYSTEM_TESTED": "YKL-40 (Homo sapiens (Human), UniProt P36222)", "RESULT": "0.1 to 1 µM"}
{"COMPOUND": "C[C@H]1CN(C2CCN(c3cnccn3)CC2)[C@@H](Cc2ccc(Cl)cc2)CO1 [Example 12, 2,2,2-trifluoroacetate]", "SYSTEM_TESTED": "YKL-40 (Homo sapiens (Human), UniProt P36222)", "RESULT": "1 to 10 µM"}
{"COMPOUND": "C[C@H]1CN(C2CCN(c3nccc(C(F)(F)F)n3)CC2)[C@@H](Cc2ccc(Cl)cc2)CO1 [compound 146, hydrochloride]", "SYSTEM_TESTED": "YKL-40 (Homo sapiens (Human), UniProt P36222)", "RESULT": "1 to 10 µM"}
{"COMPOUND": "Cc1cccnc1N1CCC(N2C[C@H](C)OC[C@@H]2Cc2ccc(Cl)cc2)CC1 [Example 16, 2,2,2-trifluoroacetate]", "SYSTEM_TESTED": "YKL-40 (Homo sapiens (Human), UniProt P36222)", "RESULT": "> 100 µM"}
{"COMPOUND": "CC(C)C1OC[C@H](Cc2ccc(Cl)cc2)N1C1CCN(c2ccccn2)CC1 (some centres unmarked) [compound 150, hydrochloride]", "SYSTEM_TESTED": "YKL-40 (Homo sapiens (Human), UniProt P36222)", "RESULT": "> 100 µM"}
{"COMPOUND": "Cc1ncnc(N2CCC(N3C[C@H](C)OC[C@@H]3Cc3ccc(Cl)cc3)CC2)n1 [compound 172, 2,2,2-trifluoroacetate]", "SYSTEM_TESTED": "YKL-40 (Homo sapiens (Human), UniProt P36222)", "RESULT": "> 100 µM"}
{"COMPOUND": "C[C@H]1CN(C2CCN(c3ccccc3C#N)CC2)[C@@H](Cc2ccc(Cl)cc2)CO1 [compound 119, 2,2,2-trifluoroacetate]", "SYSTEM_TESTED": "YKL-40 (Homo sapiens (Human), UniProt P36222)", "RESULT": "> 100 µM"}
{"COMPOUND": "C[C@H]1CN(C2CCN(c3ccncn3)CC2)[C@@H](Cc2ccc(Cl)cc2)CO1 [Example 26, 2,2,2-trifluoroacetate]", "SYSTEM_TESTED": "YKL-40 (Homo sapiens (Human), UniProt P36222)", "RESULT": "> 100 µM"}
{"COMPOUND": "C[C@H]1CN(C2CCN(c3ncccc3C#N)CC2)[C@@H](Cc2ccc(Cl)cc2)CO1 [Example 22, 2,2,2-trifluoroacetate]", "SYSTEM_TESTED": "YKL-40 (Homo sapiens (Human), UniProt P36222)", "RESULT": "0.1 to 1 µM"}
{"COMPOUND": "C[C@@H](O)[C@H]1CN(C2CCN(c3ccccn3)CC2)[C@@H](Cc2ccc(Cl)cc2)CN1C [compound 110]", "SYSTEM_TESTED": "YKL-40 (Homo sapiens (Human), UniProt P36222)", "RESULT": "< 0.1 µM"}
{"COMPOUND": "CN1CCN(C[C@H]2CN(C3CCN(c4ncccn4)CC3)[C@@H](Cc3ccc(Cl)cc3)CO2)CC1 [compound 71, 2,2,2-trifluoroacetate]", "SYSTEM_TESTED": "YKL-40 (Homo sapiens (Human), UniProt P36222)", "RESULT": "1 to 10 µM"}
{"COMPOUND": "C[C@H]1CN(C2CCN(c3nnn[nH]3)CC2)[C@@H](Cc2ccc(Cl)cc2)CO1 [compound 166, 2,2,2-trifluoroacetate]", "SYSTEM_TESTED": "YKL-40 (Homo sapiens (Human), UniProt P36222)", "RESULT": "> 100 µM"}
{"COMPOUND": "Cc1ccc(N2CCC(N3C[C@H](C)OC[C@@H]3Cc3ccc(Cl)cc3)CC2)nc1 [compound 136, hydrochloride]", "SYSTEM_TESTED": "YKL-40 (Homo sapiens (Human), UniProt P36222)", "RESULT": "> 100 µM"}
{"COMPOUND": "CC(=O)NC[C@H]1CN(C2CCN(c3ncccn3)CC2)[C@@H](Cc2ccc(Cl)cc2)CO1 [compound 75, 2,2,2-trifluoroacetate]", "SYSTEM_TESTED": "YKL-40 (Homo sapiens (Human), UniProt P36222)", "RESULT": "0.1 to 1 µM"}
{"COMPOUND": "C[C@H]1CN(C2CCN(c3cccc(F)c3)CC2)[C@@H](Cc2ccc(Cl)cc2)CO1 [compound 127, 2,2,2-trifluoroacetate]", "SYSTEM_TESTED": "YKL-40 (Homo sapiens (Human), UniProt P36222)", "RESULT": "> 100 µM"}
{"COMPOUND": "CO[C@@H]1CN(c2cc(Cl)ccn2)CC[C@@H]1N1C[C@H](C)OC[C@@H]1Cc1ccc(Cl)cc1 [compound 59, 2,2,2-trifluoroacetate]", "SYSTEM_TESTED": "YKL-40 (Homo sapiens (Human), UniProt P36222)", "RESULT": "1 to 10 µM"}
